The values you see were collected from patent US20260184782A1.

Give measured koff for each item. Keep answers brief.
Target: T1, recombinant human TIGIT (human, UniProt Q495A1 22-141, limits assumed)
T1 construct: recombinant human TIGIT used in Carterra SPR; also called hTIGIT
T1 sequence (looked up): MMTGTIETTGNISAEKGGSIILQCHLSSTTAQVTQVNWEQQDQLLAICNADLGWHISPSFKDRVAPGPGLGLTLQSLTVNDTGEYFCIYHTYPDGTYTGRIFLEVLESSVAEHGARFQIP
Experiment: SPR Carterra, average
Protocol: Binding affinities of VHH-Fc proteins to recombinant human TIGIT were measured by SPR using a Carterra instrument (Table 10A). […] Average values reported from measurements from 1-2 samples.
Answers are plain numbers, in s⁻¹.

binder: TIGIT-SC17 (Fc fusion, VHH-Fc fusion in assay) VHH: EVQLVESGGGLVQPGGSLRLSCAASGFDFSVSWMGWFRQAPGKEREWVASVLRGGYTWYADSVKGRFTISADNSKNTAYLQMNSLKPEDTAVYYCAREGSWFDYWGQGTLVTVSS
koff [s⁻¹]: 0.00149

Please turn your attention to the following entry.
Enquiry: I have this binder here, TIGIT-SC79 (Fc fusion, VHH-Fc fusion in assay) VHH: EVQLVESGGGLVQPGGSLRLSCAASGSILSINTMGWFRQAPGKEREFVAAITSAGGTTYYADSVKGRFTISADNSKNTAYLQMNSLKPEDTAVYYCARWHYDILTGYYWLDSWGQGTLVTVSS , and I need its recorded koff.
Return: 0.00445
